B1: TPPP (parent)
chain: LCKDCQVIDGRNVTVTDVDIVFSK

- Variants of: B1
- testProtocol: protein stability index of a GFP-peptide fusion (GPS, HEK-293T) (PSI 1-6); higher = more stable;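 note: lentivirally expressed fusions sorted by FACS into six bins by GFP to DsRed ratio, PSI derived from sequencing read proportions per bin multiplied by bin number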
- experimentalSetup: c terminus: a fixed tail appended
Please go through the items and note down their protein stability index.
Answers are plain numbers.

Here are 2 variants together with their reported answers.
[[record]]
mutantdesignation = "V13D"
quantitykind = "protein stability index"
datavalue = 3.04

[[record]]
mutantdesignation = "I20L"
quantitykind = "protein stability index"
datavalue = 3.02


Below: the item to evaluate.
Consider the variant `V13R` and give its measured protein stability index.
3.03
